Just for reference, paper PMC9664868 is where these values come from.

Molecular target: UniProtKB Q8IL34
Sequence (Q8IL34 entry or part of it): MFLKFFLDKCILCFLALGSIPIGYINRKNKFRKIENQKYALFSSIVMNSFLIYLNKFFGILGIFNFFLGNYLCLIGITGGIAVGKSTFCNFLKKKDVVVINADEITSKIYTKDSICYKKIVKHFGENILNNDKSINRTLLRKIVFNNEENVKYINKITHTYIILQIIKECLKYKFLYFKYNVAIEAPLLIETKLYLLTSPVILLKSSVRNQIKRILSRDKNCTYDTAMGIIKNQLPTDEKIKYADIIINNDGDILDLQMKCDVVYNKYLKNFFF
Test: PfDPCK inhibition, enzyme-coupled fluorescence ADP detection assay (HTS and IC50 determination)
Type: biochemical
Conditions: recombinant enzyme; means ± SEMs; read-out: IC50 (μM) of: PfDPCK
Measurement Kind: IC50 (µM)

1. O=Cc1cc(C23CC4CC(CC(C4)C2)C3)cc([N+](=O)[O-])c1O
2. Cc1cc(Nc2cc3ccccc3cc2O)n2ncnc2n1
3. Nc1nc(Nc2cccc(F)c2)nc2ccccc12
q: Output the listed items in decreasing order of IC50. Put the labels in the order asked and list them.
a: 1, 2, 3
